- tgt: PfATC (Plasmodium falciparum)
- assay.details: biochemical
attribute.measured: IC50
I'd appreciate it if you wrote the number followed by its unit.

Exam item: // lookup IC50 | system=PfATC (Plasmodium falciparum) | key= COCCNC(=O)c1cc(-c2ccccc2)sc1N [compound 1]
Marked response: 1590 nM

---

- tgt: PfATC (Plasmodium falciparum, UniProt A0A5K1K910)
- Sequence (A0A5K1K910 entry or part of it): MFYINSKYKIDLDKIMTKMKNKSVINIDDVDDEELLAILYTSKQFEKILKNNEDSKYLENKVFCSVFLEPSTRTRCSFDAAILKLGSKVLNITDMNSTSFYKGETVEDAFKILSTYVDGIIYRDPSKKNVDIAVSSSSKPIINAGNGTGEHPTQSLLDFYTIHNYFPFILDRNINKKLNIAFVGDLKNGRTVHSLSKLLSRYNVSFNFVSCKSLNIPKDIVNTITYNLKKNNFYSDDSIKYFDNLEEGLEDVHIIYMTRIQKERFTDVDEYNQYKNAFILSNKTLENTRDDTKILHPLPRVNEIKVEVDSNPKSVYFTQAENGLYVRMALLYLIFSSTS
- assay.details: biochemical
- test.context: in vitro activity assay, PfATC 50 nM, 2 mM CP, 1 mM aspartate; read-out: PfATC IC50
attribute.measured: IC50 (nM)
Express your answer in nM, writing the number without its unit.

Exam item: Entry CC(C)(C)OC(=O)Nc1sc(-c2ccccc2)c(-c2ccccc2)c1C(=O)NCCc1ccc(O)cc1 : reported IC50 = ?
Marked response: 2010

---

- tgt: HsATC (Homo sapiens)
- Construct: ATCase domain of CAD; made in house; host or cells: E. coli BL21 star
- assay.details: HsATC activity assay
- Assay type: biochemical
- test.context: in vitro activity assay, 10 mM L-aspartate, 5 mM carbamoyl phosphate; read-out: HsATC IC50
attribute.measured: log10 of IC50 (log10 of the value in nM)
The common logarithm of IC50 in nM is what is listed.

Examples with answers:
CC(C)(C)OC(=O)Nc1sc(-c2cccc(C#N)c2)cc1C(=O)NCCc1ccc(O)cc1 : 2.58
CC(C)(C)OC(=O)Nc1sc(-c2ccccc2)cc1C(=O)NCCO : 2.14
CC(C)(C)OC(=O)Nc1sc(Br)cc1C(=O)NCCc1ccc(O)cc1 : 2.81
CC(C)(C)OC(=O)Nc1sc(-c2ccccc2)cc1C(=O)N1CCN(c2ccc(F)cc2)CC1 : 2.47
Nc1sc(-c2ccccc2)cc1C(=O)NCCc1ccc(O)cc1 : 2.56
N#CC1(C(=O)Nc2sc(-c3ccccc3)cc2C(=O)NCCc2ccc(O)cc2)CC1 : 2.75
CC(C)(C)OC(=O)Nc1sc(-c2ccccc2)cc1C(=O)O : 3.21
CC(C)c1cc(C(=O)NCCc2ccc(O)cc2)c(N)s1 : 2.94
COC(=O)c1c(NC(=O)OC(C)(C)C)sc2c1CCN(Cc1ccccc1)C2 : 5.85
CC(C)(C)OC(=O)Nc1sc2c(c1C(=O)NCCc1ccc(O)cc1)CCC(c1ccccc1)C2 (stereo not shown) : 3.38

Exam item: Reported log10 of IC50 for CC(C)CCNc1sc(-c2ccccc2)cc1C(=O)NCCc1ccc(O)cc1 : what is it?
Marked response: 2.83

Exam item: Using the record for CC(C)(C)OC(=O)Nc1sc(-c2ccccc2)cc1C(=O)NCCc1ccccc1 , report its log10 of IC50.
Marked response: 3.45

---

We begin with a simple list: items and their reported pIC50.
- tgt: HsATC (Homo sapiens, UniProt P27708)
- Construct: ATCase domain of CAD; made in house; host or cells: E. coli BL21 star
- Sequence (P27708 1918-2225 limits assumed): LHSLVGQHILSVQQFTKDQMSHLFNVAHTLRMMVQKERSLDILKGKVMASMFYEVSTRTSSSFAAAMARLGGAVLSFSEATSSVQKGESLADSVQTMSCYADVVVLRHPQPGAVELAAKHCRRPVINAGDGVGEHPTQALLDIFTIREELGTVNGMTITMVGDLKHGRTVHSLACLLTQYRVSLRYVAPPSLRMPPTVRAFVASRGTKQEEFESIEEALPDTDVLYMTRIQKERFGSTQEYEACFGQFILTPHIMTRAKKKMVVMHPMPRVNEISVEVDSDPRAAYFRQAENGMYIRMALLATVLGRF
- assay.details: HsATC activity assay
- Assay type: biochemical
- test.context: in vitro activity assay, 10 mM L-aspartate, 5 mM carbamoyl phosphate; read-out: HsATC IC50
// pIC50 is dimensionless: -log10 of concentration (M)

Some solved entries appear below for comparison.
COC(=O)c1c(N)sc2c1CCN(Cc1ccccc1)C2 : 4.23
Cc1ccc(CCNC(=O)c2cc(-c3ccccc3)sc2NC(=O)OC(C)(C)C)cc1 : 6.12

Now consider a different compound.
Exam item: Write down the reported pIC50 of CC(C)(C)OC(=O)Nc1sc(-c2ccccc2)cc1C(=O)NCCc1ccc(C(F)(F)F)cc1 , test system: HsATC (Homo sapiens, UniProt P27708).
Marked response: 6.21

---

- tgt: PfATC (Plasmodium falciparum, UniProt A0A5K1K910)
- assay.details: biochemical
- test.context: in vitro activity assay, PfATC 50 nM, 2 mM CP, 1 mM aspartate; read-out: PfATC IC50
attribute.measured: pIC50
// scale note: pIC50 = -log10(conc_M); give the bare number

Example entries and their recorded answers appear below.
O=C(Cc1c[nH]c2ccccc12)Nc1sc(-c2ccccc2)cc1C(=O)NCCc1ccccc1 : 4.83
CC(C)CCNc1sc(-c2ccccc2)cc1C(=O)NCCc1ccccc1 : 6.80
COC(=O)c1c(NC(=O)OC(C)(C)C)sc2c1CCC(c1ccccc1)C2 (centres unmarked) : 5.19
Nc1sc(-c2ccccc2)cc1C(=O)NCCc1ccc(S(N)(=O)=O)cc1 : 6.00
CC(C)(C)OC(=O)Nc1sc(-c2ccccc2)cc1C(=O)NCCC1=CCCCC1 : 5.20

Exam item: Param readout= pIC50; system= PfATC (Plasmodium falciparum, UniProt A0A5K1K910); entry= Cc1ccc(CCNC(=O)c2cc(-c3ccccc3)sc2NC(=O)OC(C)(C)C)cc1 ; returns value.
Marked response: 6.39

Exam item: Param readout= pIC50; system= PfATC (Plasmodium falciparum, UniProt A0A5K1K910); entry= CC(C)c1cc(C(=O)NCCc2ccc(O)cc2)c(NC(=O)OC(C)(C)C)s1 ; returns value.
Marked response: 5.66

Exam item: Value wanted: pIC50 (PfATC (Plasmodium falciparum, UniProt A0A5K1K910)) of entry Nc1sc(Cc2ccccc2)cc1C(=O)NCCc1ccc(O)cc1
Marked response: 5.32

Exam item: Test system PfATC (Plasmodium falciparum, UniProt A0A5K1K910); read-out pIC50; what value for CC(C)(C)OC(=O)Nc1sc(-c2ccc3c(c2)OCO3)cc1C(=O)NCCc1ccc(O)cc1 ?
Marked response: 6.17

Exam item: Query for PfATC (Plasmodium falciparum, UniProt A0A5K1K910): what pIC50 does the record show for CC(C)(C)OC(=O)Nc1sc(-c2ccccc2)cc1C(=O)NCCc1ccc(S(N)(=O)=O)cc1 ?
Marked response: 5.73

Exam item: Recorded pIC50 for CC(C)(C)OC(=O)Nc1sc(-c2ccccc2)cc1C(=O)Nc1ccc(N2CCOCC2)c(F)c1 with PfATC (Plasmodium falciparum, UniProt A0A5K1K910), please?
Marked response: 5.97

Exam item: Give PfATC (Plasmodium falciparum, UniProt A0A5K1K910) pIC50 for CC(C)(C)OC(=O)Nc1sc(-c2ccccc2)cc1C(=O)NCCc1ccccc1
Marked response: 7.11

Exam item: Query for PfATC (Plasmodium falciparum, UniProt A0A5K1K910): what pIC50 does the record show for CC(C)(C)OC(=O)Nc1sc(-c2ccc(F)cc2)cc1C(=O)NCCc1ccc(O)cc1 ?
Marked response: 6.07

Exam item: Notebook entry, PfATC (Plasmodium falciparum, UniProt A0A5K1K910) assay: pIC50 of Nc1sc(-c2ccccc2)cc1C(=O)NCCc1ccc(O)cc1 = ?
Marked response: 5.94

Exam item: Form: Entry = COC(=O)c1cc(-c2ccc3c(c2)OCCO3)sc1NC(=O)OC(C)(C)C | System = PfATC (Plasmodium falciparum, UniProt A0A5K1K910) | pIC50 = ____
Marked response: 5.98

Exam item: For the record COC(=O)c1c(N)sc2c1CCC(c1ccccc1)C2 (centres unmarked) , what value of pIC50 is listed for PfATC (Plasmodium falciparum, UniProt A0A5K1K910)?
Marked response: 5.89

Exam item: PfATC (Plasmodium falciparum, UniProt A0A5K1K910) / pIC50 / CC(C)(C)OC(=O)Nc1sc(-c2ccccc2)cc1C(=O)O : value?
Marked response: 6.00

---

- tgt: HsATC (Homo sapiens)
- Construct: ATCase domain of CAD; made in house; host or cells: E. coli BL21 star
- Sequence (P27708 1918-2225 limits assumed): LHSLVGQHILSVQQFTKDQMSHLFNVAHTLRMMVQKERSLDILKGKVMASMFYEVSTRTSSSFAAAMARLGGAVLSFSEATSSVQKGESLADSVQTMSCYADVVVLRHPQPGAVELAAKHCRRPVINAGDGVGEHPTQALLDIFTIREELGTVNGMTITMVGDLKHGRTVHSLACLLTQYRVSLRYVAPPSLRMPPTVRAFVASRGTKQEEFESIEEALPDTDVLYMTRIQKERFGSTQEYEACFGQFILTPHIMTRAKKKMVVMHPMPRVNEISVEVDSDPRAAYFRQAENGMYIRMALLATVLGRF
- assay.details: HsATC activity assay
- Assay type: biochemical
- test.context: in vitro activity assay, 10 mM L-aspartate, 5 mM carbamoyl phosphate; read-out: HsATC IC50
- Protocol: 417100μL of stop mix (two volumes of Antipyrine (26.5 mM 2,3-Dimethyl-1-phenyl-3-pyrazolin-5- 418one in 50% (v/v) sulfuric acid) and one volume of 2,3-Butanedione monoxime (80 mM 2,3- 419Butanedione monoxime in 5% (v/v) acetic acid). After plates were sealed with transparent sealing […] 422measuring at 466 nm suing a Synergy H1 Hybrid Reader (BioTek). […] 431the plate in the dark for another 30 min before measuring the absorbance at 466 nm suing a Synergy 432H1 Hybrid Reader (BioTek). […]
attribute.measured: IC50 (µM)
Kindly answer with a numeric value in µM, unit omitted.

Worked cases, IC50 given:
Nc1sc(Cc2ccccc2)cc1C(=O)NCCc1ccc(O)cc1 : 1.23
Cc1ccc(-c2cc(C(=O)NCCc3ccc(O)cc3)c(NC(=O)OC(C)(C)C)s2)cc1 : 0.119
COC(=O)c1cc(-c2ccccc2)sc1N : 1.54

Consider the additional compound presented here.
Exam item: May I ask what IC50 has been recorded for CC(C)(C)OC(=O)Nc1sc(-c2ccccc2)cc1C(=O)NCCc1ccc(O)cc1 ?
Marked response: 0.116
